The measured values listed here are drawn from patent US20230278954A1.

The entries below are paired with their reported fold induction at 1.95 pg/mL.
Molecular target: human TLR2 (Homo sapiens, UniProt O60603)
Construct: expressed in transfected cells; host or cells: HEK-Blue hTLR2 cells
Sequence (O60603 21-784): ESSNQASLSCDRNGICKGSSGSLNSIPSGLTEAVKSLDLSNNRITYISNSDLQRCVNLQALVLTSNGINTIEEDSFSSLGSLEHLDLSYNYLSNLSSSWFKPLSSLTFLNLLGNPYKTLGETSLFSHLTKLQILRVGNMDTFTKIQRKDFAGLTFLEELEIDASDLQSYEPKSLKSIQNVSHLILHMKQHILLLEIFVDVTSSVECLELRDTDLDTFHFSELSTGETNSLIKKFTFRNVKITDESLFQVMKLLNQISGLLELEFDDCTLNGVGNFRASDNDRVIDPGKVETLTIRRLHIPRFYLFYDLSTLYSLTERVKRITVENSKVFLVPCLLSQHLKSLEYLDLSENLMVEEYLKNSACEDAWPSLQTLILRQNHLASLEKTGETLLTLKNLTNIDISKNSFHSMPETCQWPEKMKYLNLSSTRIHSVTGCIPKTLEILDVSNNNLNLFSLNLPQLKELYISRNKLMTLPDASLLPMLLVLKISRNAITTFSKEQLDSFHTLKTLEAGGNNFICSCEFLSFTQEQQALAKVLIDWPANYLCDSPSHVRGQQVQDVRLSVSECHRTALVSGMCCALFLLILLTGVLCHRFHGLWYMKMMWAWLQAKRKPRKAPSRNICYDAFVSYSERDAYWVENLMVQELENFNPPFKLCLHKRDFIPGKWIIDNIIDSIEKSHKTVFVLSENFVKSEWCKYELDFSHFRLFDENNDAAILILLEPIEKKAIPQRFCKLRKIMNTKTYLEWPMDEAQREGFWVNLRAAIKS
Sequence (Q9Y2C9 32-796 partner): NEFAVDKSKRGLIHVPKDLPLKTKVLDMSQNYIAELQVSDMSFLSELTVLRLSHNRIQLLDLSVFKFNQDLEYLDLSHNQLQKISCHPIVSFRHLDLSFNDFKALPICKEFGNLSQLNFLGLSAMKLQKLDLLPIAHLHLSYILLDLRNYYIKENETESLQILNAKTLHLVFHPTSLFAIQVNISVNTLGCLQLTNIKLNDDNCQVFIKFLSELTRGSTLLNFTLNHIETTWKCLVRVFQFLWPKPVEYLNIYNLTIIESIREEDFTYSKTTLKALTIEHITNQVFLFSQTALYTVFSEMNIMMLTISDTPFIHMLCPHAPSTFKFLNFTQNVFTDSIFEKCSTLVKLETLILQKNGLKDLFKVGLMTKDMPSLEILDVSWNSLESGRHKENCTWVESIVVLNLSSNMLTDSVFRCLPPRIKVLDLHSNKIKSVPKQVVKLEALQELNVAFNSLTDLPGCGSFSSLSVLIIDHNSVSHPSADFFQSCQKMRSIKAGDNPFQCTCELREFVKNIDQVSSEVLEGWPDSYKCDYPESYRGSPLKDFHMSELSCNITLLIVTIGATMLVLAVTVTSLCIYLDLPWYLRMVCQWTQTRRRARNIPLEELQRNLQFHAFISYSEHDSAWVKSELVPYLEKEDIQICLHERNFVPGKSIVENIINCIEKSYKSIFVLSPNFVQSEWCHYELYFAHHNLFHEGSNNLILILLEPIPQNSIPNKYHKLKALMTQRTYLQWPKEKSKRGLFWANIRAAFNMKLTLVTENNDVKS
Test: Activation of human TLR2 III: HEK-Blue hTLR2 dose response (SEAP reporter)
Format: cell-based
Conditions: HEK-Blue hTLR2; 1.95 pg/mL; read-out: Fold Induction (ratio of average induced value to average non-induced value)
Answer with a bare number; do not write a unit.

Examples from the recorded data:
compound | fold induction at 1.95 pg/mL
CCCCCCCCCCCCCC[C@@H](C)C(=O)OCC[C@H](CSC[C@H](N)C(=O)N[C@@H](CO)C(=O)NCCOCCOCCOCCOCCOCCOCCOCCOCCOCCOCCOCCOCCOCCOCCOCCOCCOCCOCCOCCOCCOCCOCCOCCOCCOCCOCCOCCOCCC(=O)NCC(N)=O)OC(=O)[C@H](C)CCCCCCCCCCCCCC [Compound B14] | 28
CCCCCCCCCCCCCCC(C)C(=O)OCC[C@H](CSC[C@H](N)C(=O)N[C@@H](CO)C(=O)NCCOCCOCCOCCOCCOCCOCCOCCOCCOCCOCCOCCOCCOCCOCCOCCOCCOCCOCCOCCOCCOCCOCCOCCOCCOCCOCCOCCOCCC(=O)NCC(N)=O)OC(=O)C(C)CCCCCCCCCCCCCC (stereo partly shown) [Compound B12] | 28
CCCCCCCCCCCCCC[C@H](C)C(=O)OCC[C@H](CSC[C@H](N)C(=O)N[C@@H](CO)C(=O)NCCOCCOCCOCCOCCOCCOCCOCCOCCOCCOCCOCCOCCOCCOCCOCCOCCOCCOCCOCCOCCOCCOCCOCCOCCOCCOCCOCCOCCC(=O)NCC(N)=O)OC(=O)[C@@H](C)CCCCCCCCCCCCCC [Compound B16] | 21.1

Switching to the query record.
In: Could you share which fold induction at 1.95 pg/mL value was measured for CCCCCCCCCCCCCCC(C)C(=O)OC[C@H](CSC[C@H](N)C(=O)N[C@@H](CO)C(=O)NCCOCCOCCOCCOCCOCCOCCOCCOCCOCCOCCOCCOCCOCCOCCOCCOCCOCCOCCOCCOCCOCCOCCOCCOCCOCCOCCOCCOCCC(=O)NCC(N)=O)OC(=O)C(C)CCCCCCCCCCCCCC (stereo partly shown) [Compound B4] ?
Out: 25.3

* * *

Biological target: human TLR2 (Homo sapiens)
Construct: expressed in transfected cells; host or cells: HEK-Blue hTLR2 cells
Assay: Activation of human TLR2 III: HEK-Blue hTLR2 dose response (SEAP reporter)
Type: cell-based
Details: 7.81 pg/mL
measure-name: Average optical density (650 nm)

compound | reported-measurement
CCCCCCCCCCCCCCC(C)C(=O)OC[C@H](CSC[C@H](N)C(=O)N[C@@H](CO)C(=O)NCCOCCOCCOCCOCCOCCOCCOCCOCCOCCOCCOCCOCCOCCOCCOCCOCCOCCOCCOCCOCCOCCOCCOCCOCCOCCOCCOCCOCCC(=O)NCC(N)=O)OC(=O)C(C)CCCCCCCCCCCCCC (stereo partly shown) | 2.260
CCCCCCCCCCCCCC[C@@H](C)C(=O)OCC[C@H](CSC[C@H](N)C(=O)N[C@@H](CO)C(=O)NCCOCCOCCOCCOCCOCCOCCOCCOCCOCCOCCOCCOCCOCCOCCOCCOCCOCCOCCOCCOCCOCCOCCOCCOCCOCCOCCOCCOCCC(=O)NCC(N)=O)OC(=O)[C@H](C)CCCCCCCCCCCCCC | 2.562
CCCCCCCCCCCCCCC(C)C(=O)OCC[C@H](CSC[C@H](N)C(=O)N[C@@H](CO)C(=O)NCCOCCOCCOCCOCCOCCOCCOCCOCCOCCOCCOCCOCCOCCOCCOCCOCCOCCOCCOCCOCCOCCOCCOCCOCCOCCOCCOCCOCCC(=O)NCC(N)=O)OC(=O)C(C)CCCCCCCCCCCCCC (stereo partly shown) | 2.411
CCCCCCCCCCCCCC[C@H](C)C(=O)OCC[C@H](CSC[C@H](N)C(=O)N[C@@H](CO)C(=O)NCCOCCOCCOCCOCCOCCOCCOCCOCCOCCOCCOCCOCCOCCOCCOCCOCCOCCOCCOCCOCCOCCOCCOCCOCCOCCOCCOCCOCCC(=O)NCC(N)=O)OC(=O)[C@@H](C)CCCCCCCCCCCCCC | 1.978

* * *

Biological target: human TLR2 (Homo sapiens, UniProt O60603)
Construct: expressed in transfected cells; host or cells: HEK-Blue hTLR2 cells
Experiment: Activation of human TLR2 III: HEK-Blue hTLR2 dose response (SEAP reporter)
Format: cell-based
Conditions: agonism of hTLR2, HEK-Blue hTLR2
pEC50: −log10 of the molar value.
measure-name: pEC50

# example entries with known answers
molecule | pEC50
CCCCCCCCCCCCCCC(C)C(=O)OCC[C@H](CSC[C@H](N)C(=O)N[C@@H](CO)C(=O)NCCOCCOCCOCCOCCOCCOCCOCCOCCOCCOCCOCCOCCOCCOCCOCCOCCOCCOCCOCCOCCOCCOCCOCCOCCOCCOCCOCCOCCC(=O)NCC(N)=O)OC(=O)C(C)CCCCCCCCCCCCCC (stereo partly shown) | 10.29
CCCCCCCCCCCCCCC(C)C(=O)OC[C@H](CSC[C@H](N)C(=O)N[C@@H](CO)C(=O)NCCOCCOCCOCCOCCOCCOCCOCCOCCOCCOCCOCCOCCOCCOCCOCCOCCOCCOCCOCCOCCOCCOCCOCCOCCOCCOCCOCCOCCC(=O)NCC(N)=O)OC(=O)C(C)CCCCCCCCCCCCCC (stereo partly shown) | 9.67

1: CCCCCCCCCCCCCC[C@@H](C)C(=O)OCC[C@H](CSC[C@H](N)C(=O)N[C@@H](CO)C(=O)NCCOCCOCCOCCOCCOCCOCCOCCOCCOCCOCCOCCOCCOCCOCCOCCOCCOCCOCCOCCOCCOCCOCCOCCOCCOCCOCCOCCOCCC(=O)NCC(N)=O)OC(=O)[C@H](C)CCCCCCCCCCCCCC
2: CCCCCCCCCCCCCC[C@H](C)C(=O)OCC[C@H](CSC[C@H](N)C(=O)N[C@@H](CO)C(=O)NCCOCCOCCOCCOCCOCCOCCOCCOCCOCCOCCOCCOCCOCCOCCOCCOCCOCCOCCOCCOCCOCCOCCOCCOCCOCCOCCOCCOCCC(=O)NCC(N)=O)OC(=O)[C@@H](C)CCCCCCCCCCCCCC
In: Could you kindly indicate whether 1 or 2 has the higher pEC50 value? Indicate which entry you chose by stating its label.
Out: 1
(1: 9.58, 2: 9.30)

* * *

Target: human TLR2 (Homo sapiens, UniProt O60603)
Construct: expressed in transfected cells; host or cells: HEK-Blue hTLR2 cells
Assay: Activation of human TLR2 III: HEK-Blue hTLR2 dose response (SEAP reporter)
Type: cell-based
Conditions: HEK-Blue hTLR2; 31.25 pg/mL; read-out: Fold Induction (ratio of average induced value to average non-induced value)
measure-name: fold induction at 31.25 pg/mL

compound | fold induction at 31.25 pg/mL
CCCCCCCCCCCCCCC(C)C(=O)OCC[C@H](CSC[C@H](N)C(=O)N[C@@H](CO)C(=O)NCCOCCOCCOCCOCCOCCOCCOCCOCCOCCOCCOCCOCCOCCOCCOCCOCCOCCOCCOCCOCCOCCOCCOCCOCCOCCOCCOCCOCCC(=O)NCC(N)=O)OC(=O)C(C)CCCCCCCCCCCCCC (stereo partly shown) | 33.7
CCCCCCCCCCCCCCC(C)C(=O)OC[C@H](CSC[C@H](N)C(=O)N[C@@H](CO)C(=O)NCCOCCOCCOCCOCCOCCOCCOCCOCCOCCOCCOCCOCCOCCOCCOCCOCCOCCOCCOCCOCCOCCOCCOCCOCCOCCOCCOCCOCCC(=O)NCC(N)=O)OC(=O)C(C)CCCCCCCCCCCCCC (stereo partly shown) | 34.5
CCCCCCCCCCCCCC[C@@H](C)C(=O)OCC[C@H](CSC[C@H](N)C(=O)N[C@@H](CO)C(=O)NCCOCCOCCOCCOCCOCCOCCOCCOCCOCCOCCOCCOCCOCCOCCOCCOCCOCCOCCOCCOCCOCCOCCOCCOCCOCCOCCOCCOCCC(=O)NCC(N)=O)OC(=O)[C@H](C)CCCCCCCCCCCCCC | 33.7
CCCCCCCCCCCCCC[C@H](C)C(=O)OCC[C@H](CSC[C@H](N)C(=O)N[C@@H](CO)C(=O)NCCOCCOCCOCCOCCOCCOCCOCCOCCOCCOCCOCCOCCOCCOCCOCCOCCOCCOCCOCCOCCOCCOCCOCCOCCOCCOCCOCCOCCC(=O)NCC(N)=O)OC(=O)[C@@H](C)CCCCCCCCCCCCCC | 31.3

* * *

Biological target: human TLR2 (Homo sapiens, UniProt O60603)
Construct: expressed in transfected cells; host or cells: HEK-Blue hTLR2 cells
Experiment: Activation of human TLR2 III: HEK-Blue hTLR2 dose response (SEAP reporter)
Format: cell-based
Conditions: HEK-Blue hTLR2; 7.81 pg/mL; read-out: Fold Induction (ratio of average induced value to average non-induced value)
measure-name: fold induction at 7.81 pg/mL

compound | fold induction at 7.81 pg/mL
CCCCCCCCCCCCCCC(C)C(=O)OCC[C@H](CSC[C@H](N)C(=O)N[C@@H](CO)C(=O)NCCOCCOCCOCCOCCOCCOCCOCCOCCOCCOCCOCCOCCOCCOCCOCCOCCOCCOCCOCCOCCOCCOCCOCCOCCOCCOCCOCCOCCC(=O)NCC(N)=O)OC(=O)C(C)CCCCCCCCCCCCCC (stereo partly shown) | 33
CCCCCCCCCCCCCC[C@@H](C)C(=O)OCC[C@H](CSC[C@H](N)C(=O)N[C@@H](CO)C(=O)NCCOCCOCCOCCOCCOCCOCCOCCOCCOCCOCCOCCOCCOCCOCCOCCOCCOCCOCCOCCOCCOCCOCCOCCOCCOCCOCCOCCOCCC(=O)NCC(N)=O)OC(=O)[C@H](C)CCCCCCCCCCCCCC | 33
CCCCCCCCCCCCCC[C@H](C)C(=O)OCC[C@H](CSC[C@H](N)C(=O)N[C@@H](CO)C(=O)NCCOCCOCCOCCOCCOCCOCCOCCOCCOCCOCCOCCOCCOCCOCCOCCOCCOCCOCCOCCOCCOCCOCCOCCOCCOCCOCCOCCOCCC(=O)NCC(N)=O)OC(=O)[C@@H](C)CCCCCCCCCCCCCC | 27.5
CCCCCCCCCCCCCCC(C)C(=O)OC[C@H](CSC[C@H](N)C(=O)N[C@@H](CO)C(=O)NCCOCCOCCOCCOCCOCCOCCOCCOCCOCCOCCOCCOCCOCCOCCOCCOCCOCCOCCOCCOCCOCCOCCOCCOCCOCCOCCOCCOCCC(=O)NCC(N)=O)OC(=O)C(C)CCCCCCCCCCCCCC (stereo partly shown) | 31.4
